For each of the compounds below, state its pIC50.
Bear in mind: pIC50 is minus log10 of a mol/L concentration; give just that figure.

Hey, Pepsin A (Sus scrofa, UniProt P00791) data for CC(C)[C@H](NC(=O)[C@H](NC(=O)OCc1ccccc1)C(C)C)C(=O)NC(c1ccc(O)cc1)C(O)CC(=O)O (some centres not stated) : pIC50 came out at 2.81

Noted pIC50 for CC(C)[C@H](NC(=O)[C@H](NC(=O)OCc1ccccc1)C(C)C)C(=O)NC(c1ccccc1)C(O)CC(=O)O (some centres not stated) , tested on Pepsin A (Sus scrofa, UniProt P00791): 3.46

Field pIC50 (Pepsin A (Sus scrofa, UniProt P00791)), entry CCCCC(NC(=O)[C@@H](NC(=O)[C@H](NC(=O)OCc1ccccc1)C(C)C)C(C)C)C(O)CC(=O)O (some centres not stated) : 4.75

Case CC(C)[C@H](NC(=O)OCc1ccccc1)C(=O)N[C@H](C(=O)NC(c1ccc(O)cc1)C(O)CC(=O)O)C(C)C (some centres not stated) , Pepsin A (Sus scrofa, UniProt P00791), pIC50 recorded as 2.95

Pepsin A (Sus scrofa, UniProt P00791) pIC50 of CC(C)CC(NC(=O)[C@@H](NC(=O)[C@@H](NC(=O)OCc1ccccc1)C(C)C)C(C)C)C(O)CC(=O)O (some centres not stated) is 6.70

Field pIC50 (Pepsin A (Sus scrofa, UniProt P00791)), entry CCCCC(NC(=O)[C@@H](NC(=O)[C@@H](NC(=O)OCc1ccccc1)C(C)C)C(C)C)C(O)CC(=O)O (some centres not stated) : 8.00

Pepsin A (Sus scrofa, UniProt P00791) data for CC(C)CC(=O)N[C@H](C(=O)N[C@H](C(=O)N[C@@H](CC(C)C)[C@@H](O)CC(=O)N[C@@H](C)C(=O)N[C@@H](CC(C)C)[C@@H](O)CC(=O)O)C(C)C)C(C)C [PEPSTATIN] ; its pIC50: 8.15
